Assign melting point to each entry below.

As a guide, the following entries are already answered.
>>> reported_value("O=C(Nc1ccc(-c2noc(C(F)(F)F)n2)cc1F)c1ccccc1")
"166 to 175 °C"
>>> reported_value("Cc1cc(-c2noc(C(F)(F)F)n2)ccc1NC(=O)C1CC1")
"185 to 196 °C"
>>> reported_value("Cc1cc(-c2noc(C(F)(F)F)n2)ccc1NC(=O)c1ccccc1")
"173 to 176 °C"

With those in mind, consider the next compound.
Q) Quick one: melting point for O=C(Nc1ccc(-c2noc(C(F)(F)F)n2)cc1F)C1CC1 ?
A) 160 to 162 °C
